Reported inhibition by item:
- System: Ephrin type-A receptor 4 (Homo sapiens) (UniProt P54764)
- Sequence (P54764 whole entry): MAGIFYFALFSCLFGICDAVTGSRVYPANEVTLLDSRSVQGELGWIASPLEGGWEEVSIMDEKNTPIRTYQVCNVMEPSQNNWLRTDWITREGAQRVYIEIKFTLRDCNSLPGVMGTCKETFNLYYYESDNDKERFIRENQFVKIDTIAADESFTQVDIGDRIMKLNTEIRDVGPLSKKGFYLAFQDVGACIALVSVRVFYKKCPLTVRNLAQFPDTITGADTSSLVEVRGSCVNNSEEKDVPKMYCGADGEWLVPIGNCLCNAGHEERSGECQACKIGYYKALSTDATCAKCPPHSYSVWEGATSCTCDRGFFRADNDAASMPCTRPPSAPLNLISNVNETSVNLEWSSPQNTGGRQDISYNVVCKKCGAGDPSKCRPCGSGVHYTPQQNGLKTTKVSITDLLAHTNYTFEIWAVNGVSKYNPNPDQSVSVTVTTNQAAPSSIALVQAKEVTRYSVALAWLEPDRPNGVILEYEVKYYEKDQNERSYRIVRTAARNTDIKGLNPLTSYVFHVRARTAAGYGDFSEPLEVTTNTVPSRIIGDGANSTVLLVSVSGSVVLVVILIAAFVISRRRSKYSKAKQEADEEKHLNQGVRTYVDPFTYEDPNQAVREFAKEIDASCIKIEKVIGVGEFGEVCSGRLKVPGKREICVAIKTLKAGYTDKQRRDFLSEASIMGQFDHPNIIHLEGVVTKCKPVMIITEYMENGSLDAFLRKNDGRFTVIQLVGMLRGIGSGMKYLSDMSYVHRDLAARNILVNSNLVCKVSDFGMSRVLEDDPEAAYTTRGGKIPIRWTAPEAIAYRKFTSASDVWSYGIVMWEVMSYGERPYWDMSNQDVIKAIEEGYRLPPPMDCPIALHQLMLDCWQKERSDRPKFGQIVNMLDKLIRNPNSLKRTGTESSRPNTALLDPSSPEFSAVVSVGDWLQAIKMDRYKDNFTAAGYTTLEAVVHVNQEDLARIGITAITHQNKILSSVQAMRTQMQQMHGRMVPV
- Condition Context: at 1 µM
- Description: GSK_PKIS: EPHA4 mean inhibition at 1 uM [Nanosyn]
Please give a number only; it is taken to be in %.

Q: Query: inhibition; subject: COc1cc2ncn(-c3cc(OCc4ccccc4C(F)(F)F)c(C(C)=O)s3)c2cc1OC
Ans: 10.6

Others:
Q: Query: inhibition; subject: COc1ccc2cc(-c3c(-c4ccncc4)nc(-c4ccc(S(C)(=O)=O)cc4C)n3C)ccc2c1
Ans: 17.6

Q: Query: inhibition; subject: C[C@@H](Oc1cc(-n2cnc3ccc(OCC4CCN(C)CC4)cc32)sc1C(N)=O)c1ccccc1Cl
Ans: 11.6

Q: Query: inhibition; subject: COc1cc(Nc2ncc3c(C)nc(-c4cccc(C(F)(F)F)c4)n3n2)cc(OC)c1OC
Ans: 56.1

Q: Query: inhibition; subject: COC(=O)Nc1nc2ccc(Sc3ccc(NC(=O)Nc4cc(C(F)(F)F)ccc4F)cc3)cc2[nH]1
Ans: 81.6
